tested on: four EV-A71 strains (BrCr, H, Shenzhen98, Jiangsu52); experiment: CPE inhibition assay, summary over four EV-A71 strains; format: cell-based, Enterovirus 71 (EV-A71); conditions: Enterovirus A, EVA71, Vero, read-out: EC50 towards four EV-A71 strains
pEC50: −log10 of the molar value.
MEASUREMENT TYPE: pEC50

Recorded pEC50, per entry:
# value of pEC50, four EV-A71 strains (BrCr, H, Shenzhen98, Jiangsu52), item CCOC(=O)c1ccc(OCCC2CCN(c3ccc(C)nn3)CC2)cc1 [pirodavir, reference compound] = 6.12 to 6.42

# value of pEC50, four EV-A71 strains (BrCr, H, Shenzhen98, Jiangsu52), item CN1CCN(c2ccc3c(c2)C(=O)N(c2ccc(Cl)cc2)C3)CC1 [Compound D3] = > 5.00

# value of pEC50, four EV-A71 strains (BrCr, H, Shenzhen98, Jiangsu52), item Cc1ccc(N2Cc3cc(N)ccc3C2=O)cc1 [Compound 6, 5-amino-2-(p-tolyl)isoindolin-1-one] = > 5.00

Next item in the queue.
# value of pEC50, four EV-A71 strains (BrCr, H, Shenzhen98, Jiangsu52), item O=C1c2ccccc2CN1c1ccc(Br)cc1 [Compound A4, 2-(4-bromophenyl)isoindolin-1-one] = 5.75 to 5.91
